Assay: binders of probe aFSTL3 on microarray, primary screen, stem cell growth factor project, biochemical, small-molecule microarray, fluorescence 635/667 (AID 1064);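 also: measures binding of the biotinylated anti-FSTL3 antibody to printed compounds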
Conditions: higher = more signal
MEASURED ENDPOINT: composite z-score
Answer using only a numeral; do not append any unit.

-- ask Return reported composite z-score; argument: `C=COC[C@H]1CN2[C@@H](CC[C@@H](C)[C@@H]2c2ccc(Br)cc2)C(=O)O1`
-- reply -0.6

-- ask Then this compound: `COCCOC(=O)N1C(=O)[C@@]2(c3cc(C#CCNC(N)=O)ccc31)[C@H](c1ccc(O)cc1)N1[C@H](c3ccccc3)[C@H](c3ccccc3)OC(=O)[C@H]1[C@@H]2C(=O)N1CCCCCCC1`
-- reply 0.282

-- ask Now the same for COc1cccc([C@H]2Oc3ccc(OC)cc3C(=NOC(C)CN3CCCc4nc(C)c(C)cc43)[C@@H]2O)c1 (stereo not given in full)
-- reply -0.437

-- ask How about this compound: `CCOC(=O)C[C@H]1[C@H](OC(=O)c2ccc(C(=O)c3ccccc3)cc2)[C@@H](NC(=O)c2ccc(-c3ccccc3)cc2)c2cc(OCCCO)ccc2N1C(=O)c1ccc2ccccc2n1`
-- reply -0.378

-- ask Same question for `CCN1C(=O)[C@H]2[C@H]3[C@H](O)[C@H](O)CC(=NOC[C@@H](C)[C@H](OCc4ccccc4)C(C)C)[C@@H]3CC[C@H]2C1=O` please.
-- reply -0.468

-- ask Okay, and `C[C@H](c1ccccc1)N1C(=O)[C@H]2[C@H]3[C@H](O)[C@H](O)CC(=O)[C@@H]3CC[C@H]2C1=O` ?
-- reply -0.019

-- ask Then this compound: `CCOC(=O)C1=CC[C@H]2C(=O)N(CC)C(=O)[C@@H]12`
-- reply -0.537

-- ask Here is the next compound: COC(=O)[C@H](C)NC(=O)CCC1CC(OC(=O)NCc2cccc3ccccc23)CC2(CCCC(COC(=O)NCCc3ccc(Cl)cc3)O2)O1 (stereo not given in full)
-- reply -0.489

-- ask What about this compound? `COc1ccc(COC(=O)NN=C2C[C@@H](O)[C@@H](O)[C@@H]3[C@@H]4C(=O)N(Cc5ccc6c(c5)OCO6)C(=O)[C@@H]4CC[C@@H]23)cc1`
-- reply 1.58

-- ask Try the compound CC(CCN1CCc2nc(-c3ccccc3)c(-c3ccccc3)cc2C1)=NOC(C)CN1CCCCc2nc(C)c(C)cc21 (stereo not given)
-- reply -0.16

-- ask Entry to check: `CC(C)CON=C1C[C@@H](O)[C@@H](O)[C@@H]2[C@@H]3C(=O)N(C[C@@H]4CCCO4)C(=O)[C@@H]3CC[C@H]12`
-- reply -0.549

-- ask And the next one, `CC(=O)C[C@H](O)[C@@H](NC(=O)OC(C)(C)C)C(C)C` ?
-- reply -0.475

-- ask Same read-out for `O=C1[C@H]2[C@H]3[C@H](O)[C@H](O)CC(=NOCc4ccccc4)[C@H]3CC[C@H]2C(=O)N1c1cccc(Oc2ccccc2)c1` ?
-- reply -0.602

-- ask Try this compound next: `COc1ccc(O[C@H]2C=C[C@@H](c3ccccc3)O[C@@H]2COC(=O)N2CCCCC2)cc1`
-- reply -0.0055

-- ask Same question for COc1ccc(-c2ccc3c(n2)CCCN3CC(O)CN2CCCc3nc(C)c(C)cc32)cc1 (stereo not given) please.
-- reply 0.683

Hey, just so you know, these numbers are from PubChem BioAssay.
